tested on: MDA-MB-231; assay: kynurenine production, fold change vs DMSO IFNg/TNF control; higher = more kynurenine produced (less inhibition); details: pre-treatment time: 18 h then 24 h IFNg/TNF
Collected kynurenine production values appear next to each entry.
Answer with the value's number alone.

| COMPOUND | REPORTED_MEASUREMENT |
| --- | --- |
| O=C1C=C2C=C[C@@H]3C[C@@]2(O1)[C@H]1CCCCN31 [Securinine] (compound dose: 10 uM) | 0.213 |
| COc1cc(C2OCC3C(c4cc(OC)c(O[C@@H]5O[C@H](CO)[C@@H](O)[C@H](O)[C@H]5O)c(OC)c4)OCC23)cc(OC)c1O[C@H]1O[C@@H](CO)[C@H](O)[C@@H](O)[C@@H]1O (stereo partly drawn) [Eleutheroside E] (compound dose: 10 uM) | 0.784 |

Now consider a different compound.
Q: Give the measured kynurenine production of C=C[C@H]1[C@H](O[C@@H]2O[C@H](CO)[C@@H](O)[C@H](O)[C@H]2O)OC=C2C(=O)OCC[C@H]21 [Sweroside] (compound dose: 10 uM) .
A: 0.832

Cited source: the supplement of paper PMC13094657
